All values here come from ChEMBL document CHEMBL3988442.

Listing of entries alongside the reported Percent Effect.
- System: Wolbachia pipientis
- Method Description: Anti-Wolbachia Cell-Based Screen
- Assay type: functional
- Design: scale not given: in the data most compounds retested in dose-response had high values
- Study Conditions: 5 µM
Hit rate of the full screen: of about 48,000 compounds, about 13,000 (27%) showed an effect of 50% or more. Some of the results follow.
The figure you give is taken to be in %; do not add the unit.

Molecule	Test Value
CC(=O)NCCCSC1CCN(c2ccccc2Cl)C1=O (configuration not stated)	1.299
O=C(NCCC(O)c1cccs1)c1ccco1 (configuration not stated)	-4.816
O=C(CN1CCN(C(=O)c2cccc(-c3ccoc3)c2)CC1)C1CC1	-1.743
CC[C@H]1COCCN1C(=O)c1cnc(N2CCN(C)CC2)nc1C	-29.22
COCC1CN(C(=O)Cc2cccc(F)c2)Cc2ccnn2C1.O=C(O)C(F)(F)F (configuration not stated)	13.65

Data request: // query Percent Effect value for entry `CN1CCCN(C(=O)c2cnc(Cc3c(Cl)cccc3Cl)nc2O)CC1`
Data returned: 6.628

Data request: # lookup: Percent Effect of `Cn1cc(C(=O)N2CC[C@@]3(O)CCN(C(=O)C4CCCC4)C[C@H]3C2)cn1`
Data returned: 2.716

Data request: Report Percent Effect for CC1(Cc2ccc3c(c2)OCO3)CCCN(S(=O)(=O)N2CCOCC2)C1 (configuration not stated) please.
Data returned: -4.077

Data request: Field request: Percent Effect | item: Cc1noc(C2CCC3(CCN(C(=O)c4sccc4C)CC3)O2)n1 (configuration not stated)
Data returned: 105.9

Data request: Look up Percent Effect: CC(CNC(=O)c1ccon1)Oc1cccc(Br)c1 (configuration not stated)
Data returned: -16.92

###

- System: Wolbachia pipientis
- Method Description: Anti-Wolbachia Cell-Based Screen
- Format: functional
- Design: scale not given: in the data most compounds retested in dose-response had high values
- Study Conditions: 5 µM
The campaign covered roughly 48,000 compounds. About 13,000 (27%) showed an effect of 50% or more. The list shows a part of the results.
Readings of Percent Effect for the listed molecules

Molecule	Percent Effect
Cc1csc2ncc(-c3ccnc(NC4CCOCC4)n3)c(=O)n12	88.01%
Cc1nc(C)n(CC2CCCN2c2ncnc3sccc23)n1 (configuration not stated)	103.4%
c1nc(N2CCCC(Cn3cncn3)C2)c2ccsc2n1 (configuration not stated)	13.9%
N#Cc1ccc(N2CCCN(c3nccs3)CC2)nc1	-14.61%
Cc1cc(CN(C)C(=O)NC(C)Cc2ccc(O)cc2)no1 (configuration not stated)	12.34%
c1ccc2c(N3CCCC3Cn3cccn3)ncnc2c1 (configuration not stated)	-8.877%

Data request: If you can, please state the reported Percent Effect value of `Cc1cn2c(=O)c(-c3ccnc(NC4CCOCC4)n3)cnc2s1` .
Data returned: 101.9%

Data request: Look up Percent Effect: c1cnn(CC2CCCN2c2ncnc3ccsc23)c1 (configuration not stated)
Data returned: 77.53%

Data request: Fill in: Percent Effect of c1nc(N2CCCC(Cn3cncn3)C2)c2sccc2n1 (configuration not stated) is ___
Data returned: 164.6%

Data request: Tell me the measured Percent Effect of FC(F)(F)CCc1ccnc(NC2CCOC2)n1 (configuration not stated) , please.
Data returned: 0.7283%

Data request: What Percent Effect value was documented for this molecule, c1nc2c(c(N3CCCC(Cn4cncn4)C3)n1)CCC2 (configuration not stated) ?
Data returned: -15.31%

Data request: Please report the recorded Percent Effect for c1cnn(CC2CCCN2c2ncnc3c2CCC3)c1 (configuration not stated) .
Data returned: -39.95%

###

Overview of reported Percent Effect across a group of compounds:
- Tested on: Wolbachia pipientis
- Method Description: Anti-Wolbachia Cell-Based Screen
- Assay type: functional
- Set-up: scale not given: in the data most compounds retested in dose-response had high values
- Study Conditions: 5 µM
In all, about 48,000 compounds went through this assay and about 13,000 (27%) showed an effect of 50% or more. This is one part of the list.
API: value field is a number in %; no unit string.

Examples with answers:
Compound	Value Type	Test Value
Cc1nnc(C2Cc3ccccc3CN2Cc2nc(C3CC3)no2)o1 (stereo unspecified)	Percent Effect	-2.569
Cc1cc(CN2Cc3ccccc3CC2c2nnc(C)o2)on1 (stereo unspecified)	Percent Effect	1.784
Cc1noc(C)c1CN1CCCC1C(=O)OCc1ccccc1 (stereo unspecified)	Percent Effect	4.096
NC(=O)C1CCN(CCc2ccc(NCc3ccoc3)cc2)CC1	Percent Effect	-9.363
CC(C)(C)n1ncc2c(=O)[nH]c(N3CCC4(CCCCC4)C3)nc21	Percent Effect	-1.553

Data request: Field request: Percent Effect | item: Cc1nnc(C2Cc3ccccc3CN2Cc2nc(C(C)C)no2)o1 (stereo unspecified)
Data returned: 134.6

Data request: Value lookup for Percent Effect; key = `O=C(c1cccc(F)c1F)N1CCn2c(nnc2C(F)(F)F)C1`
Data returned: -8.426

Data request: // Percent Effect lookup, key: CCc1nnc(C2Cc3ccccc3CN2Cc2cc(C)no2)o1 (stereo unspecified)
Data returned: -1.172

Data request: Field request: Percent Effect | item: Cc1nnc(C2Cc3ccccc3CN2Cc2ncc(C(C)(C)C)o2)o1 (stereo unspecified)
Data returned: 21.52

Data request: Quick one: Percent Effect for `CCc1oc(C(=O)OC)cc1Cn1cccc(C(F)(F)F)c1=O` ?
Data returned: 2.78

Data request: What does the data say about its Percent Effect? Entry: `COc1ccc(F)cc1S(=O)(=O)NCCn1cnc(C)cc1=O`
Data returned: 77.48

Data request: Would you mind telling me what Percent Effect value was observed for CCc1noc(CS(=O)(=O)C(C)c2nc(C3CC3)no2)n1 (stereo unspecified) ?
Data returned: -17.73

###

- System: Wolbachia pipientis
- Method Description: Anti-Wolbachia Cell-Based Screen
- Assay type: functional
- Design: scale not given: in the data most compounds retested in dose-response had high values
- Study Conditions: 5 µM
In all, about 48,000 compounds went through this assay and about 13,000 (27%) showed an effect of 50% or more. This is one part of the list.
Value Type: Percent Effect (%)
State the answer as a number, implicitly in %.

Compound	Percent Effect [%]
c1ncc2c(n1)CN(c1ncnc3[nH]ccc13)CC2	97.2
CCN(C(=O)NCCc1ccccc1Cl)C(C)CS(C)(=O)=O (configuration not stated)	-2.563
CS(=O)(=O)CCC(=O)Nc1cnn(-c2ccccc2Cl)c1	3.918

Lab note: next compound to report on.
Data request: Entry `CN(CCc1noc(C2CC2)n1)C(=O)CCc1cc2n(n1)CCCNC2` has what Percent Effect?
Data returned: 5.558

###

Measured Percent Effect values are reported for all entries that follow.
- Test system: Wolbachia pipientis
- Method Description: Anti-Wolbachia Cell-Based Screen
- Assay type: functional
- Set-up: scale not given: in the data most compounds retested in dose-response had high values
- Study Conditions: 5 µM
Among all 48,000 compounds or so, about 13,000 (27%) showed an effect of 50% or more. This is one part of the list.
Hi! Could you send only the number? It should be in %, unit omitted.

Molecule	Endpoint Unit	Percent Effect
Cl.Cl.Cl.O[C@@H]1C[C@@](CNCc2ccccn2)(COc2cccnc2)C[C@@H]1O	%	-17.47
CCCNC(=O)Cn1c(C)nn(C(C)(C)C)c1=O	%	-1.553
Cc1cncc(C(=O)N2CCc3ncc(Cn4cccn4)n3CC2)c1	%	88.89

Data request: Looking for the measured Percent Effect of CSCC1CCN(C(=O)c2ccccc2NCc2cccnc2)C1 (configuration not stated) , can you help?
Data returned: 46.56

Data request: Name the reported Percent Effect value associated with the molecule `CCSc1nsc(NC(=O)COc2ccc3c(c2)OCO3)n1`
Data returned: 106.2

Data request: Which Percent Effect value belongs to `Cn1cc(CNCCNC(=O)Cc2ccccc2)c(-c2cccnc2)n1` ?
Data returned: 13.61

Data request: I would be grateful if you could share the reported Percent Effect for `Cc1ccc(C)c2c(O)cc(CNCC(N)=O)nc12` .
Data returned: -7.963

Data request: Entry under review: NC(=O)CN1CCC(C(=O)N2CCCC(OCc3cccnc3)C2)CC1 (configuration not stated) . Reported Percent Effect?
Data returned: -8.18

Data request: What value of measured Percent Effect is listed for COCC(=O)N(Cc1cccnc1)CC1CCCN(C2CCCCC2)C1 (configuration not stated) ?
Data returned: -12.35

Data request: May I ask what Percent Effect has been recorded for Cc1ccc(CNC(=O)N2CCN(C(C)c3cccnc3)CC2)cn1 (configuration not stated) ?
Data returned: -10.7

Data request: Which measured Percent Effect value corresponds to `CC(=O)NCCC(=O)NCc1ccc(Br)cc1Cl` ?
Data returned: -2.805

Data request: // query Percent Effect value for entry `CCCc1cc(=O)n(CC(N)=O)c(-n2nc(C)cc2C)n1`
Data returned: 12.11

Data request: Query (molecule): `c1cc(CCNc2ncc(-c3cnccn3)c(C3CC3)n2)ccn1` ; field requested: Percent Effect
Data returned: 137.3

Data request: Which Percent Effect reading was recorded for the molecule COCc1noc(-c2ccc(N3CCCC3c3ccc(F)cc3)nc2)n1 (configuration not stated) ?
Data returned: 17.95

Data request: Tell me the measured Percent Effect of `COC(=O)C1CCN(C(=O)c2cccc(NS(C)(=O)=O)c2C)CC1` , please.
Data returned: 5.787

Data request: Look up Percent Effect for this molecule: `Cc1nnc(SCCCNC(=O)Cc2ccc3c(c2)OCO3)s1`
Data returned: -3.831
